Recorded values, source patent US20240084003A1.

# targetDesc: T1, murine CD22 protein (ACROBiosystems, SI2-M52Ha) (murine, UniProt P35329 22-708)
# T1 construct: extracellular domain; also called murine CD22-ECD; murine CD22-ECD-His
# T1 sequence (looked up): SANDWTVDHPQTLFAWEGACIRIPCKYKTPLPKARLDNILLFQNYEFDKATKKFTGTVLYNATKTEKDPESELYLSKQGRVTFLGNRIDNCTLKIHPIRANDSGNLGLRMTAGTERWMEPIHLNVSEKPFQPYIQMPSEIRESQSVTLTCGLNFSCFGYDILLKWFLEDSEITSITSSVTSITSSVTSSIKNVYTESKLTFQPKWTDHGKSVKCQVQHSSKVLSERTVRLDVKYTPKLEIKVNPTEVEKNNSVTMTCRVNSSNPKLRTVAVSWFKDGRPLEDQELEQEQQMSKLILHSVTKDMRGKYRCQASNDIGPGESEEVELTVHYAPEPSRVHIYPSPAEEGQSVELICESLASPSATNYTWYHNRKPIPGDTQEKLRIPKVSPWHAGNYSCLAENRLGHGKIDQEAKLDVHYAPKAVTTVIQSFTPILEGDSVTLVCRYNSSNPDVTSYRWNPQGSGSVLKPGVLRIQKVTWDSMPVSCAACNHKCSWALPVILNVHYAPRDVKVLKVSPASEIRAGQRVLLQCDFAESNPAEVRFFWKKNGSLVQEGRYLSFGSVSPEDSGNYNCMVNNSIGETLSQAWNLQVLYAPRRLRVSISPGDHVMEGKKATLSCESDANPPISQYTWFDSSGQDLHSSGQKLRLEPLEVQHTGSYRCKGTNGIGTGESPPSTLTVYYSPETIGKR
# assay: ELISA, coated murine CD22, 0.001 nM Ab
measuredMetric: OD450 (OD450)
Answer format: numeric, OD450 implied, no suffix.

Use the examples below as a reference point.
* F1.250.16 human-murine chimeric antibody (antibody, human IgG1, kappa, V domains shown, Chimeric, human IgG1 / kappa; VL tied by name) VH: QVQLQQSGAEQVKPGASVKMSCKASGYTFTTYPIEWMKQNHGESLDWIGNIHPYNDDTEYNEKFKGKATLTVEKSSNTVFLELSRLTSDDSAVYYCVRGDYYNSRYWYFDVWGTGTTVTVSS VL: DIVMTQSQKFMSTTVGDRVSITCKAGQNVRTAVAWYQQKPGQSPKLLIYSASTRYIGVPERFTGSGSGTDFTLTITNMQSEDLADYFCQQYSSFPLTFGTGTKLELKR | 0.05
* F1.192.1 human-murine chimeric antibody (antibody, human IgG1, kappa, V domains shown, Chimeric, human IgG1 / kappa) VH: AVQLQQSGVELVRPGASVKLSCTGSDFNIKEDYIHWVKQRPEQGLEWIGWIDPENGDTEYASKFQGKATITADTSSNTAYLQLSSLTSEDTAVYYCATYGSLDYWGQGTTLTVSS VL: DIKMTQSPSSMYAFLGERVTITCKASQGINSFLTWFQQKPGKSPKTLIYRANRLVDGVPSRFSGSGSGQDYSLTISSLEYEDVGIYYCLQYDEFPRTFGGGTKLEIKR | 0.06

Please fill in: OD450 reported for F1.7.6 human-murine chimeric antibody (antibody, human IgG1, kappa, V domains shown, Chimeric, human IgG1 / kappa; VL tied by name) VH: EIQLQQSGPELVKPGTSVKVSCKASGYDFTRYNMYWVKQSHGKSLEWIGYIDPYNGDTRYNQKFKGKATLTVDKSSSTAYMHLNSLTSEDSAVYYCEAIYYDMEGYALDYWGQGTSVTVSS VL: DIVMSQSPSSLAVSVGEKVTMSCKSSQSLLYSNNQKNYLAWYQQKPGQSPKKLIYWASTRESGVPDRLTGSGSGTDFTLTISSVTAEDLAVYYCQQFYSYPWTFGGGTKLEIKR = 0.06
